- System: HLA-B*57:01 (Homo sapiens, UniProt P01889, D201E/D98Y/E176V/E187L/E204Q/E69M/E70A/G107R/I90N/K202T/L105A/L119I/N104I/N87E/Q89R/Q94S/R106L/R155S/R180L/R86G/S101N/S121V/S35A/S48A/T118I/V36M/Y140S/Y91M)
- Protocol summary: LC-MRM-MS quantitation of HLA ligands and co-purified abacavir from abacavir treated C1R.B*57:01 cells
- Assay type: cell-based
- Test conditions: LC-MRM-MS detection; classification of the peptide based on abacavir dependency
Observable: Abacavir dependence

Monomer sequence	Test result
KTIKLWNTL [HLA-B*57:01 ligand derived from RACK1]	Facilitated
KSYELPDGQVI	Facilitated

Every entry's value here was drawn from paper PMC8170132.
